Reported inhibition (INH) values are given for each entry in this list.
tested on: Mus musculus; experiment: Antidepressant activity in mouse assessed as antagonism of tetrabenazine-induced symptoms at 10 mg/kg, ip administered 30 mins before 35 mg/kg, ip tetrabenazine challenge measured after 30 mins by arousal test; format: functional

- CPD SMILES: "CCCCOc1c(CCC)cc(C2=NCCN2)c2ccccc12"
  UNIT ANNOTATION: "%"
  CENSORING QUALIFIER: "<"
  inhibition (INH): 30
- CPD SMILES: "c1ccc2c(c1)cc(C1=NCCN1)c1ccccc12"
  UNIT ANNOTATION: "%"
  CENSORING QUALIFIER: "<"
  inhibition (INH): 30
- CPD SMILES: "CCCCOc1ccc(C2=NC(C)(C)CN2)c2ccccc12.Cl"
  UNIT ANNOTATION: "%"
  CENSORING QUALIFIER: "<"
  inhibition (INH): 30
- CPD SMILES: "CCOc1ccc(C2=NCCN2)c2ccccc12"
  UNIT ANNOTATION: "%"
  CENSORING QUALIFIER: "="
  inhibition (INH): 50
- CPD SMILES: "CCCCCCOc1ccc(C2=NCCN2)c2ccccc12"
  UNIT ANNOTATION: "%"
  CENSORING QUALIFIER: "="
  inhibition (INH): 40
- CPD SMILES: "CCCCCOc1ccc(C2=NCCN2)c2ccccc12"
  UNIT ANNOTATION: "%"
  CENSORING QUALIFIER: "="
  inhibition (INH): 50
- CPD SMILES: "CCCCCCCOc1ccc(C2=NCCN2)c2ccccc12"
  UNIT ANNOTATION: "%"
  CENSORING QUALIFIER: "<"
  inhibition (INH): 30
- CPD SMILES: "CCCCOc1ccc2c(C3=NCCN3)cccc2c1"
  UNIT ANNOTATION: "%"
  CENSORING QUALIFIER: "="
  inhibition (INH): 60
- CPD SMILES: "CCCCCCOc1ccc2c(C3=NCCN3)cccc2c1"
  UNIT ANNOTATION: "%"
  CENSORING QUALIFIER: "<"
  inhibition (INH): 30
